studyTarget: UniProt P08842
Sequence (whole entry): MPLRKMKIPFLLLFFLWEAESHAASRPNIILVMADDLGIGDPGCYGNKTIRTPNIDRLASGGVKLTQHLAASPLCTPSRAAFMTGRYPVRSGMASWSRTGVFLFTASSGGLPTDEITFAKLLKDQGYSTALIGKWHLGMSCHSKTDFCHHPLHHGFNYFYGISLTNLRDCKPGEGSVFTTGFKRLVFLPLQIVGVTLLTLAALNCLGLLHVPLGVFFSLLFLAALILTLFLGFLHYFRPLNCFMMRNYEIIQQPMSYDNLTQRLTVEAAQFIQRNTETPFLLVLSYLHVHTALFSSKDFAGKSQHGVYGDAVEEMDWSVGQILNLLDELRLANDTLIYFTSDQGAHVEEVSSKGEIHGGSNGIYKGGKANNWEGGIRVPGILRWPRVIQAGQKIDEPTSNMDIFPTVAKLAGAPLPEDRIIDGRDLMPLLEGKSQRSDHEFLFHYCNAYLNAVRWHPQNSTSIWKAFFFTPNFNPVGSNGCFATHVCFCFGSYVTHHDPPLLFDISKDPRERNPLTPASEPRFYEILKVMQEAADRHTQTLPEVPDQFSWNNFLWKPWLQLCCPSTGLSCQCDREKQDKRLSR
assaySummary: Inhibition of human steroid sulfatase using 4-methylumbelliferyl sulfate substrate after 10 mins by fluorescence assay
Activity calls are given as the source filed them. No cut-off for these calls is given here.
Outcomes: yes for active, no for inactive

In [3]: df
Out[3]:
                                  cpdsmiles  categorylabel
0  C[C@]12CC[C@@H]3c4cc([N+](=O)[O-])c(O)c(C=O)c4CC[C@H]3[C@@H]1CCC2=O             no
1  C[C@]12CC[C@@H]3c4cc(C=O)c(O)cc4CC[C@H]3[C@@H]1CCC2=O             no
2  C[C@]12CC[C@@H]3c4ccc(O)c(C=O)c4CC[C@H]3[C@@H]1CC[C@@]2(O)Cc1ccccc1            yes
3  C[C@]12CC[C@@H]3c4ccc(C=O)cc4CC[C@H]3[C@@H]1CCC2=O             no
4  C[C@]12CC[C@@H]3c4cc(Br)c(O)c(C=O)c4CC[C@H]3[C@@H]1CCC2=O             no

Ref: ChEMBL document CHEMBL1833950
